Values were extracted from a melting point compilation (Tetko et al.; mined from patent text by program, amines drawn as free bases though some values may be those of a salt).

experimental-readout: melting point

molecule: COc1ccc2c(c1)CCCC2(N)CO (configuration not stated)
result: 89 to 95.6 °C
//
molecule: CC(=O)NC1(c2ccc(CN3CCN(c4nccs4)CC3)cc2)CC1
result: 184 to 185 °C
//
molecule: CCOC(=O)NN(C)c1cc(C)c(-c2cccc([N+](=O)[O-])c2)nn1
result: 142 to 144 °C
//
molecule: CN(C)CCC1CCCCN1CCN(C)C(=O)N1c2ccccc2C(=O)Nc2cccnc21 (configuration not stated)
result: 114 to 116 °C
//
molecule: CN(C(=O)OC(C)(C)C)c1cc(Oc2ccc(-c3ccc(OCc4ccccc4)cc3)cc2)ccc1[N+](=O)[O-]
result: 123 to 125 °C
//
molecule: CN(C)CCNc1cc(Sc2ccc(Cl)cc2)nc(-c2ccc(Cl)c(Cl)c2)n1
result: 99 to 103 °C
//
molecule: COC1=CC(=O)C(O)=C(CCCCCCCC(O)C(O)CCCCCCCC2=C(O)C(=O)C=C(OC)C2=O)C1=O (configuration not stated)
result: 132 to 134 °C
//
molecule: CC(C)c1ccc(Nc2ccccc2[N+](=O)[O-])c(C#N)c1
result: 91 to 96 °C
//
molecule: CCOC(=O)C1=C(C)NC(C)=C2C(=O)Oc3cccnc3C12 (configuration not stated)
result: 100 to 150 °C
//
molecule: CN(C)c1n[nH]c(-c2ccc(F)cc2)c1-c1ccncc1
result: 245 to 247 °C
//
molecule: CC1(O[Si](C)(C)C(C)(C)C)CN(c2ccc([N+](=O)[O-])cc2F)C1
result: 98 to 99.5 °C
//
molecule: COc1ccc2[nH]cc(/C=C/c3cc(/C=C/c4ccc(OCc5ccccn5)cc4OC)[nH]n3)c2c1
result: 189 to 195 °C
//
molecule: Cc1ccc(C2(O)c3ccccc3C(=O)c3ccccc32)cc1
result: 203 to 209 °C
//
molecule: Oc1nn(Cc2ccccc2)cc1CCCC1OCCO1
result: 93 to 94 °C
//
molecule: CCOC(=O)C(C)=Cc1ccc2cc[nH]c2c1
result: 88 to 91 °C
//
molecule: CC(N)(C=CP(=O)(O)O)CCCc1ccc(Sc2cccc(OCc3ccccc3)c2)cc1Cl (configuration not stated)
result: 243 to 245 °C
//
molecule: NC(=O)Nc1ccc(O)cc1
result: 96.3 to 98.3 °C
//
molecule: Oc1ccc(C2CCC(=CCC3OCCO3)CC2)cc1 (configuration not stated)
result: 126 °C
//
molecule: O=c1oc(=O)n(CC2CC2)c2ccccc12
result: 118 to 121 °C
//
molecule: COc1cccc(-c2c(NC(=O)Nc3c(C(C)C)cccc3C(C)C)c(=O)n(C)c3ncccc23)c1
result: 169 to 170 °C
//
molecule: O=Cc1c2ccccc2cc2oc3ccccc3c12
result: 128 to 132 °C
//
molecule: CCOC(=O)[C@H](Cc1ccc(-c2c(OC)cc(CO)cc2OC)cc1)NC(=O)c1c(F)cccc1Cl
result: 101 to 104 °C
//
molecule: O=C(c1cccnc1Cl)N(O)C1CCCCC1
result: 151 to 153 °C
//
molecule: CC(C)(C)NCC(O)COc1ccccc1-c1csnn1 (configuration not stated)
result: 99 to 100 °C
//
molecule: CC(=O)c1ccc(Cc2c(Cl)cc(NN=Cc3ccccc3)cc2Cl)cc1
result: 137 to 139 °C
//
molecule: CCOCCn1cc2c(=O)[nH]c(=O)[nH]c2n1
result: > 300 °C
//
molecule: COc1cc(C)ccc1OCCCN1CCC(C(O)(c2ccc(F)cc2)c2ccc(F)cc2)CC1
result: 121 to 122 °C
//
molecule: CCc1nc2c(N)nc3ccccc3c2n1CCOCCNC(=O)N1CCOCC1
result: 182 to 184 °C
//
molecule: COc1cccc(OC)c1CN1CCC(=O)C(C(c2ccc(F)cc2)c2ccc(F)cc2)C1 (configuration not stated)
result: 125 to 126 °C
//
molecule: Nn1cccc1C(=O)c1ccccc1
result: 65 to 69 °C
//
molecule: Clc1ccc2c(c1)C(c1ccccc1Cl)NCc1c[nH]cc1-2 (configuration not stated)
result: 211 to 212 °C
//
molecule: C(=Cc1ccc(-c2ccccc2)cc1)c1ccccc1
result: 224 °C

====

Residues, ends and D or L forms follow the SMILES beside them.
Reported melting point values follow for various compounds

compound: O=Cc1ccc(OCc2ccccc2)c2c1OCO2
melting point: 81 to 82 °C

compound: CCOC(=O)c1cc(-c2nn3c(c2Cl)CCCC3)c(F)cc1Cl
melting point: 72 to 73 °C

compound: CC1(C)CCSc2ccc(CC#Cc3ccc(C(=O)O)c(O)c3)cc21
melting point: 195 to 196 °C

compound: CN(C)c1ccccc1CSC1=NC(=O)C(C)(C)N1
melting point: 113 to 115 °C

compound: COc1nc2cc(Cl)c(Cl)c(-n3c(CN(C)C)nnc3-c3cccnc3)c2nc1OC
melting point: 192 to 194 °C

compound: Cc1cccc(CC(=O)O)c1OCCCc1cn(-c2ccc(Br)cn2)nc1C(C)(C)C
melting point: 62 to 63 °C

compound: O=C1CCCc2c1c1cccc(Cl)c1n2Cc1ccccc1
melting point: 161 to 162 °C

compound: C=CCc1cc(Nc2ccn(-c3ccccc3)n2)cc(CC=C)c1OC(C)=O
melting point: 110 to 111 °C

compound: O=C1c2cc(N3CCN(Cc4ccccc4)CC3)ccc2OC12CC2
melting point: 125 to 126 °C

compound: NC(=O)NC1COCC1c1ccccc1-n1nc(C(F)(F)F)cc1C(F)(F)F (stereo not given)
melting point: 198 to 200 °C

compound: Cc1cc2c(C)nc(N)nc2o1
melting point: 263 to 265 °C

compound: Cc1nc(-n2ccc(OCc3ccccc3)cc2=O)n(C)c1C(=O)NCc1ccccc1
melting point: 232 to 233 °C

compound: CS(=O)(=O)N(Cc1cccnc1)c1ccc(C#N)cc1
melting point: 73 to 75 °C

compound: CSCC(C)(C)NC(=O)c1c(NC(=O)c2cc(C(F)(F)F)nn2-c2ncccc2Cl)c(Cl)cc2cn[nH]c12
melting point: 100 to 105 °C

compound: Cc1cccc(OC(F)F)c1NC(=O)CCl
melting point: 85 to 86 °C

compound: O=C1NCc2c3c(c4[nH]c5ccccc5c4c21)Cc1ccc(C=Cc2ccccn2)cc1-3
melting point: > 320 °C

compound: O=C1NC(=O)c2c1cc(-c1ccccc1)c1[nH]c3ccc(O)cc3c21
melting point: 335 to 345 °C

compound: COc1cc(C(=O)CS(C)(=O)=O)cc(OC)c1N(C)C
melting point: 111 to 112 °C

compound: CC(C(=O)O)c1cc(Cl)c([N+](=O)[O-])cc1Cl (stereo not given)
melting point: 143 °C

compound: O=C(Nc1cccc2c1C(=O)c1c-2n[nH]c1-c1ccc(C(=O)NC2CCCCC2)s1)NN1CCOCC1
melting point: 264 to 267 °C

compound: c1ccc(OCCn2ccnc2)cc1
melting point: 88 °C

compound: CCOCOc1cc(C)ccc1-c1cc(-c2cccc([N+](=O)[O-])c2)c(C#N)c(NC(=O)c2cccs2)n1
melting point: 121 to 123 °C

compound: OCC1Cc2c(c(Cl)cc3c(-c4c(F)cccc4F)noc23)O1 (stereo not given)
melting point: 166 to 169 °C

compound: CC1(C)OCC([N+](=O)[O-])CO1
melting point: 60 to 61 °C

compound: Nc1cc(CC(=O)O)cc(C(=O)O)c1
melting point: 214 to 220 °C

compound: CCOC(=O)c1cc(C#N)c(C=O)nc1Nc1ccccc1
melting point: 165 to 167 °C

compound: CCOC(=O)C(=O)c1oc(-n2ccnc2C)nc1-c1ccc(Cl)cc1
melting point: 126 to 127 °C

compound: O=C(CCCCCCC1=CC(O)CC1=O)Oc1ccc(NC(=O)c2ccccc2)cc1 (stereo not given)
melting point: 168 to 169 °C

compound: CCC(=O)Nc1c(C)c(C)c2c(c1C)CC(C)(C)O2
melting point: 146 °C

compound: CN(C)C(N)=Nc1cc(C#N)ccc1N1CCOCC1
melting point: 125 to 127 °C

compound: O=C1c2cc3c(cc2CCC1NC(=O)C(F)(F)F)CCO3 (stereo not given)
melting point: 208 °C

compound: Cc1ccc([N+](=O)[O-])cc1Nc1nccc(-c2cccnc2)n1
melting point: 186 to 188 °C

compound: CN1c2ccc(F)cc2C(c2ccccc2)=NCC1CCl (stereo not given)
melting point: 173 to 188 °C

compound: COC(=O)C(=O)c1ccc(OCCOc2ccc(C)cc2)cc1
melting point: 105 to 107 °C

compound: NC(=O)CCC(N)C(=O)NCC(=O)NCC(=O)NC(CO)C(=O)NC(CC(N)=O)C(=O)NC(Cc1ccccc1)C(N)=O (stereo not given) (H-QGGSNF-NH2; configuration not given here)
melting point: 202 to 204 °C
